Hi! I'm sharing some AC50 results obtained with Mu-type opioid receptor (Homo sapiens, UniProt P35372).
Sequence (P35372 whole entry): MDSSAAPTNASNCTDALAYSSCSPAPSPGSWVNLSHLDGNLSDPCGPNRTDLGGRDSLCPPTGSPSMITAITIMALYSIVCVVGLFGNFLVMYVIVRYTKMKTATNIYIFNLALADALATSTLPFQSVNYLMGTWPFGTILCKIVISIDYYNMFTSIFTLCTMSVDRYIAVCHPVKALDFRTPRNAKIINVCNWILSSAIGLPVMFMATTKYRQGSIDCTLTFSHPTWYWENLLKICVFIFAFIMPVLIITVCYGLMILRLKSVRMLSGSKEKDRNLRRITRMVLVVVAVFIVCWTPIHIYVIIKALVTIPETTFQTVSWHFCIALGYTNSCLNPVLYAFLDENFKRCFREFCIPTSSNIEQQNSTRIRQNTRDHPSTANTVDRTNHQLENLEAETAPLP
readout_kind: AC50

[
  {
    "compound": "O=C1[C@H](CC[C@H](O)c2ccc(F)cc2)[C@@H](c2ccc(O)cc2)N1c1ccc(F)cc1",
    "endpoint_result": "13.9 µM"
  },
  {
    "compound": "CC(C)C(=O)Nc1ccc([N+](=O)[O-])c(C(F)(F)F)c1 [FLUTAMIDE]",
    "endpoint_result": "> 30 µM"
  },
  {
    "compound": "C[N+](C)(C)CCCCCCCCCC[N+](C)(C)C",
    "endpoint_result": "> 30 µM"
  },
  {
    "compound": "NC(=O)c1cnccn1 [PYRAZINAMIDE]",
    "endpoint_result": "> 30 µM"
  },
  {
    "compound": "CN(Cc1cc(Br)cc(Br)c1N)C1CCCCC1",
    "endpoint_result": "> 30 µM"
  },
  {
    "compound": "C[C@@H]1C[C@H]2[C@@H]3CCC4=CC(=O)C=C[C@]4(C)[C@@]3(F)[C@@H](O)C[C@]2(C)[C@H]1C(=O)CO",
    "endpoint_result": "> 30 µM"
  },
  {
    "compound": "O=C(COc1ccc(Cl)cc1)N1CCN(Cc2ccc3c(c2)OCO3)CC1 [FIPEXIDE]",
    "endpoint_result": "18.4 µM"
  },
  {
    "compound": "CCOC(=O)N[C@@H]1CC[C@@H]2[C@@H](C1)C[C@H]1C(=O)O[C@H](C)[C@H]1[C@H]2/C=C/c1ccc(-c2cccc(F)c2)cn1",
    "endpoint_result": "0.82 µM"
  }
]

----------
Hi! I'm sharing some AC50 results obtained with Sodium-dependent dopamine transporter (Homo sapiens, UniProt Q01959).
Sequence (Q01959 whole entry): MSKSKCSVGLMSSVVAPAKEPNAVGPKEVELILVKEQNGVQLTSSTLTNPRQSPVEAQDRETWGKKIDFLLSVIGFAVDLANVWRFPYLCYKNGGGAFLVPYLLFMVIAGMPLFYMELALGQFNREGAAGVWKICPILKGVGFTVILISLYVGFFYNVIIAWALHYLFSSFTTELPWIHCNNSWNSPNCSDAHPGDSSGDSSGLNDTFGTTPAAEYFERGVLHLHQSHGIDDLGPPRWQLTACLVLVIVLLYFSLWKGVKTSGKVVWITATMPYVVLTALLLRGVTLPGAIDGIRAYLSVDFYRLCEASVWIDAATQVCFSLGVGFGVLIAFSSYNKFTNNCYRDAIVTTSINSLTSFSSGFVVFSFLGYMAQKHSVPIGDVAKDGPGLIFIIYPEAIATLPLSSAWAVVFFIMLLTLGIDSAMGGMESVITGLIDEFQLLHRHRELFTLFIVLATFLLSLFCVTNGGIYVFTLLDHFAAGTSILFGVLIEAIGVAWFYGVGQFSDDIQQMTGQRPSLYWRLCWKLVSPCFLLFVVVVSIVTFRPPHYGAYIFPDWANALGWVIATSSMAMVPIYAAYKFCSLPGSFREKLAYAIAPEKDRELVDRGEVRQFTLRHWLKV

[
  {
    "molecule": "Nc1nc(N)c2nc(-c3ccccc3)c(N)nc2n1",
    "AC50": "> 30 µM"
  },
  {
    "molecule": "O=C1CCC(N2C(=O)c3ccccc3C2=O)C(=O)N1 (configuration not stated) [THALIDOMIDE]",
    "AC50": "> 30 µM"
  },
  {
    "molecule": "O=C(Cn1ccnc1[N+](=O)[O-])NCc1ccccc1 [BENZNIDAZOLE]",
    "AC50": "> 30 µM"
  },
  {
    "molecule": "COc1cc2c(cc1OC)C(=O)C(CC1CCN(Cc3ccccc3)CC1)C2 (configuration not stated) [DONEPEZIL]",
    "AC50": "9.78 µM"
  },
  {
    "molecule": "O=C1[C@H](CC[C@H](O)c2ccc(F)cc2)[C@@H](c2ccc(O)cc2)N1c1ccc(F)cc1 [EZETIMIBE]",
    "AC50": "19.5 µM"
  },
  {
    "molecule": "Cc1cc(O)cc(C)c1Cl [CHLOROXYLENOL]",
    "AC50": "> 30 µM"
  },
  {
    "molecule": "CS(=O)(=O)Nc1cc2occ(NC=O)c(=O)c2cc1Oc1ccccc1 [IGURATIMOD]",
    "AC50": "> 30 µM"
  },
  {
    "molecule": "Cc1c(-c2ccccc2)oc2c(C(=O)OCCN3CCCCC3)cccc2c1=O [FLAVOXATE]",
    "AC50": "> 30 µM"
  },
  {
    "molecule": "COc1cc2c(cc1OC)[C@H]1C[C@@H](OC(=O)[C@@H](N)C(C)C)[C@H](CC(C)C)CN1CC2 [VALBENAZINE]",
    "AC50": "> 30 µM"
  },
  {
    "molecule": "NS(=O)(=O)c1cc2c(cc1Cl)NC(C1CC3C=CC1C3)NS2(=O)=O (configuration not stated) [CYCLOTHIAZIDE]",
    "AC50": "> 30 µM"
  },
  {
    "molecule": "COCC1=C(C(=O)OC(C)OC(=O)OC(C)C)N2C(=O)[C@@H](NC(=O)/C(=N\\OC)c3csc(N)n3)[C@H]2SC1 (some centres not stated) [CEFPODOXIME PROXETIL]",
    "AC50": "> 30 µM"
  },
  {
    "molecule": "O=C(COc1ccc(Cl)cc1)N1CCN(Cc2ccc3c(c2)OCO3)CC1 [FIPEXIDE]",
    "AC50": "12.9 µM"
  },
  {
    "molecule": "Sc1ncnc2nc[nH]c12 [MERCAPTOPURINE ANHYDROUS]",
    "AC50": "> 30 µM"
  },
  {
    "molecule": "CN1CCN(C(c2ccccc2)c2ccccc2)CC1 [CYCLIZINE]",
    "AC50": "1.98 µM"
  },
  {
    "molecule": "CC/C=C\\C/C=C\\C/C=C\\C/C=C\\C/C=C\\CCCC(=O)O [ICOSAPENT]",
    "AC50": "> 30 µM"
  },
  {
    "molecule": "C[C@@H]1C[C@H]2[C@@H]3CCC4=CC(=O)C=C[C@]4(C)[C@@]3(F)[C@@H](O)C[C@]2(C)[C@H]1C(=O)CO [DESOXIMETASONE]",
    "AC50": "> 30 µM"
  },
  {
    "molecule": "C[C@H]1O[C@H](O[C@H]2[C@H](O)[C@@H](O)[C@@H](O[C@H]3[C@H](O)[C@@H](O)C(O)O[C@@H]3CO)O[C@@H]2CO)[C@H](O)[C@@H](O)[C@@H]1N[C@H]1C=C(CO)[C@@H](O)[C@H](O)[C@H]1O (some centres not stated) [ACARBOSE]",
    "AC50": "> 30 µM"
  }
]

----------
target: Thromboxane A2 receptor (Homo sapiens); type: functional, cell-based; note: assay procedure not described here
Sequence (P21731 whole entry): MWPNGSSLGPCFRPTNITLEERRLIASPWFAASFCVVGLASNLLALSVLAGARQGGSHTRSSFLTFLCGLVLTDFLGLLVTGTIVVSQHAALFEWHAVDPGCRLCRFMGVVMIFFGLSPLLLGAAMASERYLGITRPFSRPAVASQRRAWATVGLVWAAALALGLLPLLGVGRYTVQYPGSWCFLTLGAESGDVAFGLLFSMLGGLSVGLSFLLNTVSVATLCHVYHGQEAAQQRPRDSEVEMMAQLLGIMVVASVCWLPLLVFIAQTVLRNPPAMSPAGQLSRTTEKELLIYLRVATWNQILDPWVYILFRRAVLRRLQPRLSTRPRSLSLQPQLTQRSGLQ
Consider the following molecules and their measured AC50 readings.
readout_kind: AC50

[
  {
    "molecule": "CC(=O)Oc1c(C)cc(OCC(O)CNC(C)C)c(C)c1C (stereo not drawn)",
    "endpoint_result": "> 30 µM"
  },
  {
    "molecule": "CC(C)OC(=O)[C@H](C)N[P@](=O)(OC[C@H]1O[C@@H](n2ccc(=O)[nH]c2=O)[C@](C)(F)[C@@H]1O)Oc1ccccc1",
    "endpoint_result": "> 30 µM"
  },
  {
    "molecule": "O=C(Nc1ccccc1)OCC(CN1CCCCC1)OC(=O)Nc1ccccc1 (stereo not drawn)",
    "endpoint_result": "> 30 µM"
  },
  {
    "molecule": "CN(Cc1cc(Br)cc(Br)c1N)C1CCCCC1",
    "endpoint_result": "> 30 µM"
  },
  {
    "molecule": "CC1=NN(c2ccccc2)C(=O)C1",
    "endpoint_result": "> 30 µM"
  },
  {
    "molecule": "NC(=O)c1cccc2cn(-c3ccc([C@@H]4CCCNC4)cc3)nc12",
    "endpoint_result": "> 30 µM"
  },
  {
    "molecule": "CC(N/C(=N\\C#N)Nc1ccncc1)C(C)(C)C (stereo not drawn) [PINACIDIL ANHYDROUS]",
    "endpoint_result": "> 30 µM"
  },
  {
    "molecule": "C[C@@H]1C[C@H]2[C@@H]3C[C@H](F)C4=CC(=O)C=C[C@]4(C)[C@@]3(F)[C@@H](O)C[C@]2(C)[C@@]1(O)C(=O)COC(=O)C(C)(C)C [FLUMETHASONE PIVALATE]",
    "endpoint_result": "> 30 µM"
  }
]

----------
molecular target: D(3) dopamine receptor (Homo sapiens, UniProt P35462); note: assay procedure not described here
Sequence (P35462 whole entry): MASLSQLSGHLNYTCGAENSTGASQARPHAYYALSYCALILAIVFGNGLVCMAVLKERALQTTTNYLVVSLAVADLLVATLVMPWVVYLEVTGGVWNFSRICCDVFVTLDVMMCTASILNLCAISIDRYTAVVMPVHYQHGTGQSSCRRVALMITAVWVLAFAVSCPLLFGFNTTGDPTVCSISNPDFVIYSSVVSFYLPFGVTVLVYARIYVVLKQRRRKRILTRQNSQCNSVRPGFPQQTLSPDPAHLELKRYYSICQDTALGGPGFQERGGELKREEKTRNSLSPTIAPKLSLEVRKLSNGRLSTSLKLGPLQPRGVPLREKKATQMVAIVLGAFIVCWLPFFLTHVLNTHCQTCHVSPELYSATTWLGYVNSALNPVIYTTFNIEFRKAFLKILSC
Consider the following compounds and their measured AC50 readings.

[
  {
    "compound": "CC(C)C(=O)OCC(=O)[C@@]12O[C@H](C3CCCCC3)O[C@@H]1C[C@H]1[C@@H]3CCC4=CC(=O)C=C[C@]4(C)[C@H]3[C@@H](O)C[C@@]12C [CICLESONIDE]",
    "AC50": "> 30 µM"
  },
  {
    "compound": "COC(=O)C1=C(C)NC(C)=C(C(=O)OC)C1c1ccccc1[N+](=O)[O-]",
    "AC50": "> 10 µM"
  },
  {
    "compound": "Nc1ncnc2c1ncn2[C@@H]1O[C@H](COP(=O)(O)O)[C@@H](O)[C@H]1O [ADENOSINE PHOSPHATE]",
    "AC50": "> 30 µM"
  },
  {
    "compound": "CN1CC(=O)N2[C@H](c3ccc4c(c3)OCO4)c3[nH]c4ccccc4c3C[C@@H]2C1=O",
    "AC50": "> 30 µM"
  },
  {
    "compound": "CC(C)(Oc1ccc(C2CC2(Cl)Cl)cc1)C(=O)O (configuration not stated) [CIPROFIBRATE]",
    "AC50": "> 30 µM"
  },
  {
    "compound": "COC(=O)C1=C(C)NC(C)=C(C(=O)OC(C)C)C1c1cccc2nonc12 (configuration not stated)",
    "AC50": "> 30 µM"
  },
  {
    "compound": "CCc1nn(CCCN2CCN(c3cccc(Cl)c3)CC2)c(=O)n1CCOc1ccccc1",
    "AC50": "1.2 µM"
  },
  {
    "compound": "NC(CO)C(=O)NNCc1ccc(O)c(O)c1O (configuration not stated) [BENSERAZIDE]",
    "AC50": "> 30 µM"
  },
  {
    "compound": "[H]/N=C(/N)c1ccc(NCc2nc3cc(C(=O)N(CCC(=O)O)c4ccccn4)ccc3n2C)cc1",
    "AC50": "> 30 µM"
  },
  {
    "compound": "COC(=O)[C@H]1[C@@H](OC(=O)c2ccccc2)C[C@@H]2CC[C@H]1N2C",
    "AC50": "> 30 µM"
  },
  {
    "compound": "CC1=CC(=O)c2ccccc2C1=O",
    "AC50": "> 30 µM"
  },
  {
    "compound": "CN1CC[C@]23CCCC[C@H]2[C@H]1Cc1ccc(O)cc13",
    "AC50": "> 30 µM"
  },
  {
    "compound": "CN(C)[C@@H]1C(O)=C(C(N)=O)C(=O)[C@@]2(O)C(O)=C3C(=O)c4c(O)ccc(Cl)c4[C@@H](O)[C@H]3C[C@@H]12",
    "AC50": "> 30 µM"
  },
  {
    "compound": "CC(=O)NS(=O)(=O)c1ccc(N)cc1 [SULFACETAMIDE]",
    "AC50": "> 30 µM"
  },
  {
    "compound": "CN1CCCN=C1COC(=O)C(O)(c1ccccc1)C1CCCCC1 (configuration not stated)",
    "AC50": "> 30 µM"
  },
  {
    "compound": "CCOc1cc(N)c([N+](=O)[O-])cc1C(=O)NC1CCN(CC2CC=CCC2)CC1 (configuration not stated) [CINITAPRIDE]",
    "AC50": "0.038 µM"
  },
  {
    "compound": "CCCOc1ccc(C(=O)OCCN(CC)CC)cc1N",
    "AC50": "> 30 µM"
  }
]
